Values from the supplement of paper PMC9112550

system: Escherichia coli TOP10; test: shrunken log2 fold change of peptide-encoding DNA abundance (4.5 h post-induction vs induction); higher = less antimicrobial activity (less host growth inhibition); conditions: time post-induction: 4.5 h; library: site-saturation at positions 5, 18, 19, 20
measuredEndpoint: shrunken log2 fold change

INSERT INTO assay_data (monomersequence, targetorsystem, assayresult) VALUES
  ('RRIRRRPPRLPRPRPRPLFNPRP', 'Escherichia coli TOP10', -0.162),
  ('RRIRARPPRLPRPRPRPFYIPRP', 'Escherichia coli TOP10', -0.309),
  ('RRIRGRPPRLPRPRPRPGSAPRP', 'Escherichia coli TOP10', 0.972),
  ('RRIRRRPPRLPRPRPRPAAPPRP', 'Escherichia coli TOP10', 0.922),
  ('RRIRLRPPRLPRPRPRPQLCPRP', 'Escherichia coli TOP10', 0.118),
  ('RRIRYRPPRLPRPRPRPWYHPRP', 'Escherichia coli TOP10', -0.0547),
  ('RRIRCRPPRLPRPRPRPNGPPRP', 'Escherichia coli TOP10', -0.00954),
  ('RRIRQRPPRLPRPRPRPFLRPRP', 'Escherichia coli TOP10', -0.0193);

====

Reported values of shrunken log2 fold change for individual entries
test system: Escherichia coli TOP10; experiment: shrunken log2 fold change of peptide-encoding DNA abundance (4.5 h post-induction vs induction); higher = less antimicrobial activity (less host growth inhibition); settings: time post-induction: 4.5 h; library: site-saturation at positions 5, 18, 19, 20
measuredEndpoint: shrunken log2 fold change

INSERT INTO assay_data (monomersequence, measuredendpoint, assayresult) VALUES
  ('RRIRMRPPRLPRPRPRPQEVPRP', 'shrunken log2 fold change', 0.126),
  ('RRIRGRPPRLPRPRPRPEMEPRP', 'shrunken log2 fold change', -0.0341),
  ('RRIRHRPPRLPRPRPRPTWIPRP', 'shrunken log2 fold change', -0.206),
  ('RRIRGRPPRLPRPRPRPTMHPRP', 'shrunken log2 fold change', 0.715),
  ('RRIRCRPPRLPRPRPRPIKPPRP', 'shrunken log2 fold change', -0.259),
  ('RRIRHRPPRLPRPRPRPSTLPRP', 'shrunken log2 fold change', -0.0931),
  ('RRIRQRPPRLPRPRPRPQGLPRP', 'shrunken log2 fold change', 0.0739),
  ('RRIRMRPPRLPRPRPRPCWWPRP', 'shrunken log2 fold change', 0.0436);

====

system: Escherichia coli TOP10; assay: shrunken log2 fold change of peptide-encoding DNA abundance (4.5 h post-induction vs induction); higher = less antimicrobial activity (less host growth inhibition); settings: time post-induction: 4.5 h; library: site-saturation at positions 5, 18, 19, 20
Reported values of shrunken log2 fold change for individual entries
measuredEndpoint: shrunken log2 fold change

INSERT INTO results (monomersequence, assayresult) VALUES
  ('RRIRPRPPRLPRPRPRPWRDPRP', -0.00123),
  ('RRIRERPPRLPRPRPRPAQVPRP', -0.149),
  ('RRIRWRPPRLPRPRPRPNLNPRP', -0.401),
  ('RRIRDRPPRLPRPRPRPGFPPRP', 0.0346),
  ('RRIRIRPPRLPRPRPRPVNTPRP', -1.06),
  ('RRIRDRPPRLPRPRPRPAAWPRP', 1.56),
  ('RRIRRRPPRLPRPRPRPHRHPRP', 0.0704),
  ('RRIRKRPPRLPRPRPRPIMTPRP', -0.111),
  ('RRIRQRPPRLPRPRPRPTCRPRP', 0.133),
  ('RRIRYRPPRLPRPRPRPSNVPRP', -1.01),
  ('RRIRPRPPRLPRPRPRPLLPPRP', -0.0532),
  ('RRIRGRPPRLPRPRPRPISCPRP', 0.279),
  ('RRIRDRPPRLPRPRPRPWDSPRP', -0.000687),
  ('RRIRTRPPRLPRPRPRPSQSPRP', -0.114),
  ('RRIRWRPPRLPRPRPRPQRDPRP', -0.0245);

====

test system: Escherichia coli TOP10; assay: shrunken log2 fold change of peptide-encoding DNA abundance (4.5 h post-induction vs induction); higher = less antimicrobial activity (less host growth inhibition); settings: time post-induction: 4.5 h; library: site-saturation at positions 5, 18, 19, 20
Reported values of shrunken log2 fold change for individual entries
measuredEndpoint: shrunken log2 fold change

INSERT INTO results (monomersequence, measuredendpoint, assayresult) VALUES
  ('RRIRTRPPRLPRPRPRPQMFPRP', 'shrunken log2 fold change', 0.0287),
  ('RRIRARPPRLPRPRPRPGLCPRP', 'shrunken log2 fold change', 0.553),
  ('RRIRKRPPRLPRPRPRPSCVPRP', 'shrunken log2 fold change', 0.311),
  ('RRIRYRPPRLPRPRPRPGKAPRP', 'shrunken log2 fold change', -0.00206),
  ('RRIRMRPPRLPRPRPRPPGTPRP', 'shrunken log2 fold change', 1.05),
  ('RRIRGRPPRLPRPRPRPSPRPRP', 'shrunken log2 fold change', 0.927),
  ('RRIRTRPPRLPRPRPRPGPHPRP', 'shrunken log2 fold change', 0.124),
  ('RRIRQRPPRLPRPRPRPWHCPRP', 'shrunken log2 fold change', -0.0682),
  ('RRIRQRPPRLPRPRPRPNHMPRP', 'shrunken log2 fold change', -0.422),
  ('RRIRWRPPRLPRPRPRPYIDPRP', 'shrunken log2 fold change', -0.23),
  ('RRIRDRPPRLPRPRPRPCKDPRP', 'shrunken log2 fold change', -0.144),
  ('RRIRYRPPRLPRPRPRPLNDPRP', 'shrunken log2 fold change', -0.0303),
  ('RRIRNRPPRLPRPRPRPVWPPRP', 'shrunken log2 fold change', 0.199),
  ('RRIRGRPPRLPRPRPRPWECPRP', 'shrunken log2 fold change', -0.00149),
  ('RRIRERPPRLPRPRPRPMTIPRP', 'shrunken log2 fold change', -0.155);

====

tested on: Escherichia coli TOP10; test: shrunken log2 fold change of peptide-encoding DNA abundance (4.5 h post-induction vs induction); higher = less antimicrobial activity (less host growth inhibition); settings: time post-induction: 4.5 h; library: site-saturation at positions 5, 18, 19, 20
Reported values of shrunken log2 fold change for individual entries
measuredEndpoint: shrunken log2 fold change

INSERT INTO assay_data (monomersequence, measuredendpoint, assayresult) VALUES
  ('RRIRERPPRLPRPRPRPYQMPRP', 'shrunken log2 fold change', -0.448),
  ('RRIRLRPPRLPRPRPRPKPHPRP', 'shrunken log2 fold change', 0.207),
  ('RRIRIRPPRLPRPRPRPHDFPRP', 'shrunken log2 fold change', 0.0334),
  ('RRIRSRPPRLPRPRPRPIAQPRP', 'shrunken log2 fold change', -0.0267),
  ('RRIRVRPPRLPRPRPRPSIWPRP', 'shrunken log2 fold change', -0.205),
  ('RRIRWRPPRLPRPRPRPHEMPRP', 'shrunken log2 fold change', 0.433),
  ('RRIRHRPPRLPRPRPRPFYEPRP', 'shrunken log2 fold change', -0.108),
  ('RRIRQRPPRLPRPRPRPIYQPRP', 'shrunken log2 fold change', -0.647),
  ('RRIRIRPPRLPRPRPRPIYHPRP', 'shrunken log2 fold change', -0.622),
  ('RRIRLRPPRLPRPRPRPEADPRP', 'shrunken log2 fold change', 0.357),
  ('RRIRSRPPRLPRPRPRPERLPRP', 'shrunken log2 fold change', 0.131),
  ('RRIRYRPPRLPRPRPRPIMLPRP', 'shrunken log2 fold change', -3.12),
  ('RRIRNRPPRLPRPRPRPWGDPRP', 'shrunken log2 fold change', -0.0233),
  ('RRIRARPPRLPRPRPRPRRHPRP', 'shrunken log2 fold change', 1.65),
  ('RRIRQRPPRLPRPRPRPWHHPRP', 'shrunken log2 fold change', -0.00612);

====

test system: Escherichia coli TOP10; assay: shrunken log2 fold change of peptide-encoding DNA abundance (4.5 h post-induction vs induction); higher = less antimicrobial activity (less host growth inhibition); settings: time post-induction: 4.5 h; library: site-saturation at positions 5, 18, 19, 20;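 note: peptides expressed intracellularly from a pBAD plasmid library in pooled LB shake-flask culture, induced with 0.3% L-arabinose, DNA abundance read by NGS, three biological replicates, DESeq2 with apeglm shrinkage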
The label depends only on shrunken log2 fold change: true if it is at least 0.02, false if it is smaller.

INSERT INTO results (monomersequence, cat) VALUES
  ('RRIRTRPPRLPRPRPRPDMPPRP', 'false'),
  ('RRIRRRPPRLPRPRPRPYFTPRP', 'false'),
  ('RRIRDRPPRLPRPRPRPNMGPRP', 'true'),
  ('RRIRDRPPRLPRPRPRPGQYPRP', 'false'),
  ('RRIRRRPPRLPRPRPRPTVFPRP', 'true'),
  ('RRIRHRPPRLPRPRPRPGCFPRP', 'false'),
  ('RRIRRRPPRLPRPRPRPFCAPRP', 'true'),
  ('RRIRPRPPRLPRPRPRPYRCPRP', 'false'),
  ('RRIRGRPPRLPRPRPRPWAFPRP', 'true'),
  ('RRIRIRPPRLPRPRPRPPLIPRP', 'false'),
  ('RRIRPRPPRLPRPRPRPKFHPRP', 'false'),
  ('RRIRIRPPRLPRPRPRPHSKPRP', 'false'),
  ('RRIRIRPPRLPRPRPRPCYFPRP', 'false'),
  ('RRIRKRPPRLPRPRPRPHFVPRP', 'true'),
  ('RRIRKRPPRLPRPRPRPSFFPRP', 'false'),
  ('RRIRLRPPRLPRPRPRPGTIPRP', 'false'),
  ('RRIRVRPPRLPRPRPRPWMPPRP', 'false'),
  ('RRIRYRPPRLPRPRPRPRKPPRP', 'true'),
  ('RRIRLRPPRLPRPRPRPTVWPRP', 'true'),
  ('RRIRPRPPRLPRPRPRPIDPPRP', 'false'),
  ('RRIRFRPPRLPRPRPRPPWFPRP', 'true'),
  ('RRIRFRPPRLPRPRPRPHWQPRP', 'false'),
  ('RRIRCRPPRLPRPRPRPRKCPRP', 'false'),
  ('RRIRLRPPRLPRPRPRPHFQPRP', 'false'),
  ('RRIRQRPPRLPRPRPRPMYLPRP', 'false'),
  ('RRIRFRPPRLPRPRPRPQTSPRP', 'false'),
  ('RRIRPRPPRLPRPRPRPSHSPRP', 'false'),
  ('RRIRFRPPRLPRPRPRPMKKPRP', 'false'),
  ('RRIRIRPPRLPRPRPRPMRNPRP', 'true'),
  ('RRIRFRPPRLPRPRPRPYRTPRP', 'false'),
  ('RRIRTRPPRLPRPRPRPTEGPRP', 'true'),
  ('RRIRARPPRLPRPRPRPWMNPRP', 'false'),
  ('RRIRCRPPRLPRPRPRPTFVPRP', 'false'),
  ('RRIRLRPPRLPRPRPRPANHPRP', 'false'),
  ('RRIRMRPPRLPRPRPRPPKRPRP', 'true'),
  ('RRIRKRPPRLPRPRPRPDCNPRP', 'false'),
  ('RRIRERPPRLPRPRPRPEEAPRP', 'true'),
  ('RRIRTRPPRLPRPRPRPVNIPRP', 'false'),
  ('RRIRDRPPRLPRPRPRPWPLPRP', 'false'),
  ('RRIRSRPPRLPRPRPRPSHVPRP', 'false'),
  ('RRIRQRPPRLPRPRPRPIPTPRP', 'false'),
  ('RRIRCRPPRLPRPRPRPINVPRP', 'false'),
  ('RRIRARPPRLPRPRPRPQQTPRP', 'true'),
  ('RRIRCRPPRLPRPRPRPGQEPRP', 'true'),
  ('RRIRWRPPRLPRPRPRPALFPRP', 'true'),
  ('RRIRTRPPRLPRPRPRPWDWPRP', 'false'),
  ('RRIRPRPPRLPRPRPRPYQQPRP', 'false'),
  ('RRIRGRPPRLPRPRPRPWGHPRP', 'true'),
  ('RRIRSRPPRLPRPRPRPYSRPRP', 'false'),
  ('RRIRSRPPRLPRPRPRPCCHPRP', 'false'),
  ('RRIRDRPPRLPRPRPRPHLPPRP', 'false'),
  ('RRIRWRPPRLPRPRPRPALSPRP', 'false'),
  ('RRIRWRPPRLPRPRPRPAVGPRP', 'true'),
  ('RRIRPRPPRLPRPRPRPENKPRP', 'false'),
  ('RRIRCRPPRLPRPRPRPLYDPRP', 'false'),
  ('RRIRYRPPRLPRPRPRPPVVPRP', 'false'),
  ('RRIRARPPRLPRPRPRPKHCPRP', 'true'),
  ('RRIRIRPPRLPRPRPRPWIWPRP', 'false'),
  ('RRIRYRPPRLPRPRPRPFHEPRP', 'false'),
  ('RRIRKRPPRLPRPRPRPNGGPRP', 'false'),
  ('RRIRYRPPRLPRPRPRPDEKPRP', 'false'),
  ('RRIRRRPPRLPRPRPRPHHYPRP', 'false'),
  ('RRIRNRPPRLPRPRPRPRRGPRP', 'true');
